Some compounds, each annotated with its measured cell viability.
# Tested on: WHIM30 (cells of a triple-negative basal-like breast cancer xenograft);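 note: PDX cells carrying CMV promoter-driven luciferase, viability read as total photon flux per second by IVIS imaging following D-luciferin, vehicle control 0.1% DMSO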
# Experimental protocol: cell viability (% of vehicle); higher = less cytotoxic
# Experimental context: 10 µM; 72 h

CC12CCC3c4ccc(O)cc4CCC3C1CC(O)C2O (configuration not stated)
150
CC(=O)OCC(=O)NCCCOc1cccc(CN2CCCCC2)c1.Cl [Roxatidine Acetate HCl]
128
Cl.Cl.NCCc1cnc[nH]1 [Histamine 2HCl]
122
[O-]n1ccccc1=S.[O-]n1ccccc1=S.[Zn+2]
45.5
C=C[C@]1(C)C[C@@H](OC(=O)CSC2C[C@H]3CC[C@@H](C2)N3C)[C@]2(C)[C@H](C)CC[C@]3(CCC(=O)[C@H]32)[C@@H](C)[C@@H]1O (some centres not stated)
146

// sample Nc1ccn(C2OC(CO)C(O)C2O)c(=O)n1 (configuration not stated) , its cell viability was 86.1

# cell viability (compound: Nc1nnc(-c2cccc(Cl)c2Cl)c(N)n1 ) is 175

Lab note: measured cell viability of Nc1ncn(C2OC(CO)C(O)C2O)c(=O)n1 (configuration not stated) was 198

// recorded cell viability for CCC(=O)NCCC1CCc2ccc3c(c21)CCO3 (configuration not stated) : 103

Record summary for CCOc1nc2cccc(C(=O)O)c2n1Cc1ccc(-c2ccccc2-c2nn[nH]n2)cc1 : reported cell viability = 112

What the record says about CCCc1nn(C)c2c(=O)nc(-c3cc(S(=O)(=O)N4CCN(C)CC4)ccc3OCC)[nH]c12 : cell viability is 106

Record COc1ccccc1OCC(O)COC(N)=O (configuration not stated) . Reported cell viability: 134
